# Test system: DeltatarO mutant
# assayProtocol: S. aureus survival, RN4220 and DeltatarO strains – OD600, teichoic acid synthesis inhibitors, primary screen (AID 463173)
# conditionSet: S. aureus RN4220 wild type/DeltatarO growth, OD600, 18 h, screened at 18.75 µg/mL (by protocol)
Hit rate of the full screen: of about 52,000 compounds, about 4,300 (8.3%) were called active. Rule as the data show it: active = survival mostly below about 52% (no sharp cut-off); inactive = mostly above about 56%. What follows is part of a selection rich in actives, with near analogues and random picks from the rest.
Outcome codes: 1.0 (active), 0.0 (inactive)

molecule="[O-][n+]1onc2c1CCC1N(O)C(c3ccccc3)CC21O (configuration not stated)" answerlabel=0.0
molecule=COc1ccc(Cl)cc1NC(=O)c1nn(C)c2c1CS(=O)(=O)c1ccccc1-2 answerlabel=0.0
molecule=COc1ccc(NC(=O)c2nn(C)c3c2CS(=O)(=O)c2ccccc2-3)cc1Cl answerlabel=1.0
molecule=COc1ccccc1CNc1nc2ccc(C)cc2n2nnnc12 answerlabel=1.0
molecule="COC(=O)c1cn(C(C)C(=O)NCc2ccco2)c2ccccc12 (configuration not stated)" answerlabel=0.0
molecule=CCOc1ccccc1Nc1sc(C(=O)c2ccc(Cl)cc2)c(N)c1S(=O)(=O)c1ccccc1 answerlabel=1.0
molecule="Cc1cc(NC(=O)C2CCCN(S(=O)(=O)c3cn(C)cn3)C2)ccc1Br (configuration not stated)" answerlabel=0.0
molecule=CCCS(=O)(=O)c1c(Nc2ccccc2C)sc(C(=O)c2ccccc2)c1N answerlabel=1.0
molecule=Cc1ccccc1-c1ccnc2[nH]n(-c3ccccc3)c(=O)c12 answerlabel=1.0
molecule=Cn1nc(C(=O)Nc2ccc(F)c(Cl)c2)c2c1-c1ccccc1S(=O)(=O)C2 answerlabel=0.0
molecule=Cc1ccccc1Nc1sc(C(=O)c2ccccc2)c(N)c1S(C)(=O)=O answerlabel=0.0
molecule=O=c1oc2ccccc2c(N2CCN(c3ccc(F)cc3)CC2)c1CN1CCCC1 answerlabel=0.0
molecule=Cn1nc(C(=O)NCc2ccccc2)c2c1-c1ccccc1S(=O)(=O)C2 answerlabel=0.0
molecule=O=c1oc2ccccc2c(N2CCN(c3ccccc3F)CC2)c1CN1CCCC1 answerlabel=0.0
molecule=Cc1ccc2nc(N3CCN(c4ccc(F)cc4)CC3)c3nnnn3c2c1 answerlabel=0.0
molecule=Cc1ccc2nc(N3CCN(c4ccccc4)CC3)c3nnnn3c2c1 answerlabel=0.0
molecule=CCOc1ccccc1Nc1sc(C(=O)c2ccc(Cl)cc2)c(N)c1C#N answerlabel=0.0
molecule=CCOc1ccccc1Nc1sc(C(=O)c2ccccc2)c(N)c1S(=O)(=O)c1ccc(C)cc1 answerlabel=0.0
molecule=Cc1ccc2nc(NCc3ccccc3Cl)c3nnnn3c2c1 answerlabel=0.0
molecule=COCCCNC(=O)c1nn(C)c2c1CS(=O)(=O)c1ccccc1-2 answerlabel=0.0
molecule=COc1ccc(S(=O)(=O)c2c(Nc3ccc(C)cc3)sc(C(=O)c3ccc(C)cc3)c2N)cc1 answerlabel=0.0
molecule=COc1ccc(N2CCN(c3nc4ccc(C)cc4n4nnnc34)CC2)cc1 answerlabel=1.0
